# assay_text: qHTS assay to identify small molecule antagonists of the constitutive androstane receptor (CAR) signaling pathway - cell viability counter screen (AID 1224837); note: % is set by controls: 0 for no effect and ±100 for the full control effect; nearly all actives have a fitted effect of over 45% in size
# measurement_context: HepG2-CYP2B6-hCAR viability, CellTiter-Fluor, 23 h, co-treated with 50 nM CITCO; series mostly up to 92.4 µM
Records with an inconclusive call do not appear. The source made the active and inactive calls. Calls come from the whole dose curve; as a rule, active = well fitted cell-killing curve with a large enough effect in the repeat runs; inconclusive = weak or mixed curves, or effect the other way; inactive = flat fitted curve, though single readings scatter.
measure_name: activity change, negative = cytotoxicity

C=C[Si](C)(C)Cl	-8.76% [at 8.39 µM] (inactive)
O=C(O)C[C@H](O)C[C@H](O)/C=C/c1c(C2CC2)nc2ccccc2c1-c1ccc(F)cc1	-0.918% [at 19 µM] (inactive)
CCCCNc1ccc(NCCCC)c2c1C(=O)c1ccccc1C2=O	5.61% [at 19 µM] (inactive)
COc1cc2ncnc(Nc3cccc(Cl)c3)c2cc1OC	-20.1% [at 19 µM] (inactive)

Now take the following compound into account.
Q: // activity change, negative = cytotoxicity lookup, key: COc1cc(C(C)C)ccc1C
Ans: 1.68% [at 19 µM] (inactive)

---

# system_name: Retinoic acid receptor RXR-alpha (Homo sapiens) (UniProt P19793)
# Sequence (P19793 whole entry, looked up): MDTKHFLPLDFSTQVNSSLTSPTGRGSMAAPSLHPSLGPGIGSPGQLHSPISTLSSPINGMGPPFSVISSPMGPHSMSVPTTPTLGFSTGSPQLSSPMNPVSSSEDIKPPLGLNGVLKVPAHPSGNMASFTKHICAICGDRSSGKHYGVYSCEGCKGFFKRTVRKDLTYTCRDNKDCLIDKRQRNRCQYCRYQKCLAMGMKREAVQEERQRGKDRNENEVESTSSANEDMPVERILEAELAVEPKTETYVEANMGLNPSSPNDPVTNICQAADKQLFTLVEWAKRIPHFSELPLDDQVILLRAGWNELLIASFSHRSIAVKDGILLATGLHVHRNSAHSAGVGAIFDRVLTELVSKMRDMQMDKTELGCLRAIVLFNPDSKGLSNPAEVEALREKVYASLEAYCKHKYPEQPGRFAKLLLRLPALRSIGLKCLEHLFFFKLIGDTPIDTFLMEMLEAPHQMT
# assay_text: qHTS assay to identify small molecule agonists of the RXR signaling pathway (AID 1159527); note: % is set by controls: 0 for no effect and ±100 for the full control effect; nearly all actives have a fitted effect of over 35% in size
# measurement_context: HEK293T RXRa-UAS-bla, beta-lactamase ratio, 16 h; series mostly up to 76.8 µM
Records with an inconclusive call do not appear. The source made the active and inactive calls. Calls follow the shape of the full dose curve.
measure_name: activation

Solved entries:
C=Cc1ccncc1	inactive
CCCCCCCCCCCCS(=O)(=O)Cl	-13.1% [at 15.8 µM] (inactive)
NCc1ccco1	inactive
CCCCCCCCc1ccc(Nc2ccc(CCCCCCCC)cc2)cc1	inactive
Cc1ccc(C=O)cc1	inactive

Please report activation for every entry that follows.
1. CCC1(C)C(=O)N(Cl)C(=O)N1Cl (stereo not drawn)
2. Cc1ccc(C2OC[C@@H]3OC(c4ccc(C)cc4)O[C@H]([C@H](O)CO)[C@@H]3O2)cc1 (stereo partly drawn)

Ans:
1: inactive; 2: inactive

Please report activation for every entry that follows.
1. C=C1CC[C@H]2O[C@]2(C)CC[C@@H]2[C@@H]1CC2(C)C
2. CC(C=O)c1ccccc1 (stereo not drawn)
3. O=c1[nH]cccc1O
4. Nc1ccc(F)c([N+](=O)[O-])c1
5. COc1cc2ncnc(Nc3cccc(Cl)c3)c2cc1OC
6. NC(=O)c1ccccc1Cl

Ans:
1. inactive
2. inactive
3. inactive
4. inactive
5. -15.1% [at 15.8 µM] (inactive)
6. inactive

---

# system_name: Estrogen receptor (Homo sapiens)
# assay_text: qHTS assay to identify small molecule agonists of the estrogen receptor alpha (ER-alpha) signaling pathway (AID 743075);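 note: HEK293 GripTite cells with ER-alpha and UAS-driven beta-lactamase reporter; % is set by controls: 0 for no effect and ±100 for the full control effect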
# measurement_context: HEK293 ER-alpha-UAS-bla, beta-lactamase FRET ratio, 18 h; series mostly up to 70.1 µM
Records with an inconclusive call do not appear. The source made the active and inactive calls. Calls come from the whole dose curve.
measure_name: outcome

Solved entries:
CCCCCCCC/C=C\CCCCCCCC(=O)N(CCO)CCO	inactive
C=CCN1C(=O)C(CC(C)C)NC1=S (stereo not drawn)	inactive
COc1ccc(/C=N/NC(=O)c2ccncc2)c(C(=O)O)c1OC	inactive
CC12CCC(C1)C(C)(C)C2=O (stereo not drawn)	inactive
Cc1cc(=O)c(C(=O)N[C@@H](C(=O)N[C@@H]2C(=O)N3C(C(=O)O)=C(CSc4nnnn4C)CS[C@H]23)c2ccc(O)cc2)c[nH]1	inactive
N=C(N)c1ccc(/C=C/c2ccc(C(=N)N)cc2O)cc1	inactive
NCC(O)CC(=O)O (stereo not drawn)	inactive
CC(C)c1ccc2sc3ccccc3c(=O)c2c1	inactive
CC(C)C[C@@H](NC(=O)[C@@H](O)[C@H](N)Cc1ccccc1)C(=O)O	inactive
CC/C=C\C/C=C\C/C=C\C/C=C\C/C=C\CCCC(=O)O	inactive

Please report outcome for every entry that follows.
1. Cc1cc(Br)ccc1NC(=O)CCl
2. CC(C)OC(=O)Nc1ccc2nc(-c3cscn3)[nH]c2c1
3. CCOC(=O)Cc1ccc(-c2ccccc2)cc1

Ans:
1. inactive
2. inactive
3. inactive
